- Tested on: RPS6KA4(Kin.Dom.2-C-terminal);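 also: KINOMEscan kinase panel screen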
- testContext: concentration: 1 μM, replicates: in singlicate; n = 1
measurementName: %Inh (%)
Write it as a number; the unit % goes unstated.

Consider the worked cases shown below.
O=C(Nc1cccc(-c2nn3ccccc3c2-c2ccnc(Nc3cccc(F)c3)n2)c1)c1c(F)ccc(F)c1Cl    0
Nc1n[nH]c2cnc(-c3ccccc3)cc12    71

In: # input molecule: c1ccc(-c2cnc3nccnn23)cc1 ; wanted: its %Inh
Out: 0

In: Try the molecule Nc1ncc(-c2ccc3nccc(-c4ccncc4)c3c2)cc1S(=O)(=O)N1CCOCC1
Out: 0

In: Query Clc1ccc(-c2nn3ncccc3c2-c2ccnc(Nc3ccc4c(c3)OCCO4)n2)cc1 next
Out: 0

Entry source: paper PMC5540273
